B1: LINE1-mini (parent)
chain: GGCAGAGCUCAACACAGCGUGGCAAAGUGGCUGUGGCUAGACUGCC

Variants of: B1
test_details: self-cleavage, relative activity (ratio to wild type); higher = more cleavage; in vitro, sequencing; the parent is a self-cleaving ribozyme
# self-cleavage >= 0.2 gives yes, anything below gives no

Prompt: Assess whether reported self-cleavage for A11U A39G sits at 0.2 or higher.
Response: no

Prompt: Assess whether reported self-cleavage for C3U C46G sits at 0.2 or higher.
Response: yes

Prompt: Assess whether reported self-cleavage for A4G C15U sits at 0.2 or higher.
Response: yes

Prompt: Assess whether reported self-cleavage for U20A G44C sits at 0.2 or higher.
Response: no

Prompt: Assess whether reported self-cleavage for C23G G44A sits at 0.2 or higher.
Response: yes

Prompt: Assess whether reported self-cleavage for G35A C42U sits at 0.2 or higher.
Response: no

Prompt: Assess whether reported self-cleavage for G21A G36A sits at 0.2 or higher.
Response: yes

Prompt: Assess whether reported self-cleavage for G7C G40U sits at 0.2 or higher.
Response: yes

Prompt: Assess whether reported self-cleavage for G1U A12G sits at 0.2 or higher.
Response: no

Prompt: Assess whether reported self-cleavage for C10U C18A sits at 0.2 or higher.
Response: yes

Prompt: Assess whether reported self-cleavage for G22C G35A sits at 0.2 or higher.
Response: no

Prompt: Assess whether reported self-cleavage for G2U C23A sits at 0.2 or higher.
Response: no

Prompt: Assess whether reported self-cleavage for G5U C10U sits at 0.2 or higher.
Response: no

Prompt: Assess whether reported self-cleavage for A11C U32C sits at 0.2 or higher.
Response: no

Prompt: Assess whether reported self-cleavage for G1U U32A sits at 0.2 or higher.
Response: no

Prompt: Assess whether reported self-cleavage for U43C G44C sits at 0.2 or higher.
Response: no

Prompt: Assess whether reported self-cleavage for G2C C37U sits at 0.2 or higher.
Response: no

Prompt: Assess whether reported self-cleavage for G1A G27A sits at 0.2 or higher.
Response: yes

Prompt: Assess whether reported self-cleavage for A24G U38C sits at 0.2 or higher.
Response: yes

Prompt: Assess whether reported self-cleavage for G22C G33U sits at 0.2 or higher.
Response: no

Prompt: Assess whether reported self-cleavage for G1U A24G sits at 0.2 or higher.
Response: yes

Prompt: Assess whether reported self-cleavage for G5A G22C sits at 0.2 or higher.
Response: no

Prompt: Assess whether reported self-cleavage for G35U A41C sits at 0.2 or higher.
Response: no

Prompt: Assess whether reported self-cleavage for G36A U38G sits at 0.2 or higher.
Response: no

Prompt: Assess whether reported self-cleavage for A24U G36U sits at 0.2 or higher.
Response: no

Prompt: Assess whether reported self-cleavage for A6U C45G sits at 0.2 or higher.
Response: yes

Prompt: Assess whether reported self-cleavage for A6C A14U sits at 0.2 or higher.
Response: yes

Prompt: Assess whether reported self-cleavage for G2A C13A sits at 0.2 or higher.
Response: yes

Prompt: Assess whether reported self-cleavage for G27A U38A sits at 0.2 or higher.
Response: yes

Prompt: Assess whether reported self-cleavage for G5U A39G sits at 0.2 or higher.
Response: no

Prompt: Assess whether reported self-cleavage for U28C G35A sits at 0.2 or higher.
Response: yes

Prompt: Assess whether reported self-cleavage for G40U sits at 0.2 or higher.
Response: no

Prompt: Assess whether reported self-cleavage for A25U U38G sits at 0.2 or higher.
Response: no

Prompt: Assess whether reported self-cleavage for C10G U34C sits at 0.2 or higher.
Response: no

Prompt: Assess whether reported self-cleavage for A6C A39C sits at 0.2 or higher.
Response: yes

Prompt: Assess whether reported self-cleavage for G33C C42G sits at 0.2 or higher.
Response: no

Prompt: Assess whether reported self-cleavage for A14G C15U sits at 0.2 or higher.
Response: no

Prompt: Assess whether reported self-cleavage for A26U G27C sits at 0.2 or higher.
Response: yes

Prompt: Assess whether reported self-cleavage for G5C C23G sits at 0.2 or higher.
Response: no

Prompt: Assess whether reported self-cleavage for G5A G17C sits at 0.2 or higher.
Response: yes

Prompt: Assess whether reported self-cleavage for C10A C42U sits at 0.2 or higher.
Response: no

Prompt: Assess whether reported self-cleavage for G2C U20G sits at 0.2 or higher.
Response: no

Prompt: Assess whether reported self-cleavage for G5C A6C sits at 0.2 or higher.
Response: yes

Prompt: Assess whether reported self-cleavage for A14U C37G sits at 0.2 or higher.
Response: no

Prompt: Assess whether reported self-cleavage for C3G G22U sits at 0.2 or higher.
Response: yes

Prompt: Assess whether reported self-cleavage for C18G U34C sits at 0.2 or higher.
Response: no

Prompt: Assess whether reported self-cleavage for U34G U43A sits at 0.2 or higher.
Response: yes

Prompt: Assess whether reported self-cleavage for G1A C8G sits at 0.2 or higher.
Response: yes

Prompt: Assess whether reported self-cleavage for U28C U43C sits at 0.2 or higher.
Response: no

Prompt: Assess whether reported self-cleavage for A12G G19A sits at 0.2 or higher.
Response: no

Prompt: Assess whether reported self-cleavage for G33A A41G sits at 0.2 or higher.
Response: no

Prompt: Assess whether reported self-cleavage for A14C C23U sits at 0.2 or higher.
Response: no

Prompt: Assess whether reported self-cleavage for G2U G44A sits at 0.2 or higher.
Response: no

Prompt: Assess whether reported self-cleavage for A24C G40C sits at 0.2 or higher.
Response: no

Prompt: Assess whether reported self-cleavage for C23U U38G sits at 0.2 or higher.
Response: no

Prompt: Assess whether reported self-cleavage for U9C A25G sits at 0.2 or higher.
Response: no

Prompt: Assess whether reported self-cleavage for G2U A6G sits at 0.2 or higher.
Response: no

Prompt: Assess whether reported self-cleavage for G17A G27A sits at 0.2 or higher.
Response: yes

Prompt: Assess whether reported self-cleavage for U43A G44C sits at 0.2 or higher.
Response: no

Prompt: Assess whether reported self-cleavage for U32C G40C sits at 0.2 or higher.
Response: no

Prompt: Assess whether reported self-cleavage for A16U A25U sits at 0.2 or higher.
Response: no

Prompt: Assess whether reported self-cleavage for G1C sits at 0.2 or higher.
Response: no

Prompt: Assess whether reported self-cleavage for A12G U28A sits at 0.2 or higher.
Response: no

Prompt: Assess whether reported self-cleavage for A11G A26G sits at 0.2 or higher.
Response: no

Prompt: Assess whether reported self-cleavage for G36C C45A sits at 0.2 or higher.
Response: no

Prompt: Assess whether reported self-cleavage for G2A A39U sits at 0.2 or higher.
Response: yes

Prompt: Assess whether reported self-cleavage for A26U C46A sits at 0.2 or higher.
Response: yes
